measuredTarget: D(2) dopamine receptor (Bos taurus, UniProt P20288)
Sequence (P20288 whole entry): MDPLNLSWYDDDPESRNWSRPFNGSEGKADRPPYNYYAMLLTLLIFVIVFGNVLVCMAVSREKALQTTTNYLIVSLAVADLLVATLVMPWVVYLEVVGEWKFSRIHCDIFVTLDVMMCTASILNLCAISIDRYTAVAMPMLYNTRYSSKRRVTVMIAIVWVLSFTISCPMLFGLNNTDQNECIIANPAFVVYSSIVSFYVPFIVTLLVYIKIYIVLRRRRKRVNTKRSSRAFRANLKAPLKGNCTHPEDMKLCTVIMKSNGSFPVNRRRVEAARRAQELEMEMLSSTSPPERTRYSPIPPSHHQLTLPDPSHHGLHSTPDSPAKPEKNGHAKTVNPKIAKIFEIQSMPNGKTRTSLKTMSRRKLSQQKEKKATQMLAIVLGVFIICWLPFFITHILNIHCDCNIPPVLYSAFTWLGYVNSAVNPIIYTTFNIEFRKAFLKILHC
methodSummary: Binding affinity towards Dopamine receptor D2
readoutKind: Ki (nM)

1: CC(=O)NCc1ccc(CCCN2CCN(c3ccccc3)CC2)cc1
2: Nc1nc(-c2ccc(CCCCN3CCN(c4ccccc4)CC3)cc2)cs1
3: CC(=O)NCc1ccc(CCCCN2CCN(c3ccccc3)CC2)cc1
Ask | // sort listed items: Ki descending Write out the labels following the order that was asked for.
Reply | 1, 3, 2
(1: 340 nM, 3: 49 nM, 2: 5.5 nM)

---

measuredTarget: Adrenergic receptor alpha-1 (Rattus norvegicus, UniProt P15823+P23944+P43140)
methodSummary: Binding affinity towards Alpha-1 adrenergic receptor
Type: protein assay
readoutKind: Ki (nM)

a: CC(=O)NCc1ccc(CCN2CCN(c3ccccc3)CC2)cc1
b: CC(=O)NCc1ccc(CCCN2CCN(c3ccccc3)CC2)cc1
Ask | a or b : whose Ki is greater? Please indicate the selected item by its label.
Reply | a
(a: 69 nM, b: 6.4 nM)

---

measuredTarget: 5-hydroxytryptamine receptor 1A (Rattus norvegicus, UniProt P19327)
Sequence (P19327 whole entry): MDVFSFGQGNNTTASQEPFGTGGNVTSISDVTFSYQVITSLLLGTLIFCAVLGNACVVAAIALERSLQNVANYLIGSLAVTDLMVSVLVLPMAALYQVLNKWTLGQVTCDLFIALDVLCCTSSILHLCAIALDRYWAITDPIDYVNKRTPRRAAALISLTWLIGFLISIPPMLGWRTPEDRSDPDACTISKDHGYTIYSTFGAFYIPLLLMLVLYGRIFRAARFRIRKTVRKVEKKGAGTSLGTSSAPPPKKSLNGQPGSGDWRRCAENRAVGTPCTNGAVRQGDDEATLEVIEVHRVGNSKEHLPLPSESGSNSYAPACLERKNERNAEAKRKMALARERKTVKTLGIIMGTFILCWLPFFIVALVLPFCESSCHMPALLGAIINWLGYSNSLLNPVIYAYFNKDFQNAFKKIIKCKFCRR
pKi: −log10 of the molar value.
readoutKind: pKi

A: CC(=O)NCc1ccc(CCCN2CCN(c3ccccc3)CC2)cc1
B: CC(=O)NCc1ccc(CCN2CCN(c3ccccc3)CC2)cc1
Ask | Kindly compare A with B and tell me which has the lower pKi figure. Please indicate the selected item by its label.
Reply | A
(A: 7.48, B: 8.54)

---

measuredTarget: Adrenergic receptor alpha-1 (Rattus norvegicus, UniProt P15823+P23944+P43140)
methodSummary: Binding affinity towards Alpha-1 adrenergic receptor
Type: protein assay
readoutKind: Ki

# chemicalStructure, recordedValue
measured = [
    ("CC(=O)NCc1ccc(CN2CCN(c3ccccc3)CC2)cc1", "> 1000 nM"),
    ("CC(=O)NCc1ccc(CCCCN2CCN(c3ccccc3)CC2)cc1", "4.6 nM"),
    ("CC(=O)NCc1ccc(CN2CCN(c3ccc(F)cc3F)CC2)cc1", "> 1000 nM"),
    ("Nc1nc(-c2ccc(CCCCN3CCN(c4ccccc4)CC3)cc2)cs1", "7.9 nM"),
    ("COc1ccc(N2CCN(Cc3ccc(CNC(C)=O)cc3)CC2)cc1", "> 1000 nM"),
]

Moving on to the next compound.
Ask | May I ask what Ki has been recorded for CC(=O)NCc1ccc(CN2CCN(c3ccc(Cl)cc3)CC2)cc1 ?
Reply | > 1000 nM

---

measuredTarget: Serotonin 2 (5-HT2) receptor (Homo sapiens, UniProt P41595+P28223+P28335)
methodSummary: Binding affinity towards 5-hydroxytryptamine 2 receptor
Assay type: protein assay
readoutKind: Ki (nM)

# chemicalStructure, measuredTarget, readoutKind, recordedValue
measured = [
    ("Nc1nc(-c2ccc(CCCCN3CCN(c4ccccc4)CC3)cc2)cs1", "Serotonin 2 (5-HT2) receptor (Homo sapiens, UniProt P41595+P28223+P28335)", "Ki", 37),
    ("CC(=O)NCc1ccc(CCCN2CCN(c3ccccc3)CC2)cc1", "Serotonin 2 (5-HT2) receptor (Homo sapiens, UniProt P41595+P28223+P28335)", "Ki", 160),
]

1: CC(=O)NCc1ccc(CCN2CCN(c3ccccc3)CC2)cc1
2: CC(=O)NCc1ccc(CCCCN2CCN(c3ccccc3)CC2)cc1
Ask | 1 or 2 : whose Ki is greater? Please indicate the selected item by its label.
Reply | 1

---

measuredTarget: UniProt:P20288
methodSummary: Binding affinity towards Dopamine receptor D2
Quick list: Ki per entry.

Example compounds with recorded Ki:
# chemicalStructure, recordedValue
records = [
    ("CC(=O)NCc1ccc(CCN2CCN(c3ccccc3)CC2)cc1", "170 nM"),
    ("CC(=O)NCc1ccc(CN2CCN(c3ccccc3)CC2)cc1", "> 1000 nM"),
]

Moving on to the next compound.
Ask | May I ask what Ki has been recorded for CC(=O)NCc1ccc(CN2CCN(c3ccc(F)cc3)CC2)cc1 ?
Reply | > 1000 nM

---

Test system: Mus musculus
methodSummary: Ability to augment IL-10 in LPS-stimulated mice after oral administration by ELISA assay
Format: functional
Parameters: concentration or dose not given beside the values
Quick list: IL-10 level (% of control) per entry.
Express it in %; write the number only.

# chemicalStructure, displayUnit, IL-10 level (% of control)
records = [
    ("CC(=O)NCc1ccc(CN2CCN(c3ccc(F)cc3F)CC2)cc1", "%", 2293),
    ("CC(=O)Nc1ccc(CCCCN2CCN(c3ccccc3)CC2)cc1", "%", 585),
    ("c1ccc(CCCCN2CCN(c3ccccc3)CC2)cc1", "%", 337),
    ("CC(=O)NCc1ccc(CCCN2CCN(c3ccccc3)CC2)cc1", "%", 1805),
]

Moving on to the next molecule.
Ask | May I ask what IL-10 level (% of control) has been recorded for CC(=O)NCc1ccc(CN2CCN(c3ccccc3)CC2)cc1 ?
Reply | 376

---

methodSummary: Oral bioavailability at a dose of 30 mg/kg in rats
Assay type: ADME, organism-based
testContext: rat, in vivo
readoutKind: bioavailability (%)
Express it in %; write the number only.

Ask | May I ask what bioavailability has been recorded for CC(=O)NCc1ccc(CN2CCN(c3ccc(F)cc3F)CC2)cc1 ?
Reply | 95.5

---

Tested on: Mus musculus
methodSummary: Ability to augment IL-10 in LPS-stimulated mice after oral administration by ELISA assay
Format: functional
Design: concentration or dose not given beside the values
readoutKind: IL-10 level (% of control) (%)
Express it in %; write the number only.

Example molecules with recorded IL-10 level (% of control):
# chemicalStructure, IL-10 level (% of control) [%]
measured = [
    ("N=C(N)NCc1ccc(CCCCN2CCN(c3ccccc3)CC2)cc1", 124),
    ("CC(=O)NCc1ccc(CN2CCN(c3ccc(F)cc3)CC2)cc1", 1494),
    ("Nc1nc(-c2ccc(CCCCN3CCN(c4ccccc4)CC3)cc2)cs1", 382),
    ("CC(=O)NCc1ccc(CN2CCN(c3ccc(Cl)cc3)CC2)cc1", 361),
]

Ask | May I ask what IL-10 level (% of control) has been recorded for N/C(S)=N/Cc1ccc(CCCCN2CCN(c3ccccc3)CC2)cc1 ?
Reply | 129

Ask | Now the same for CC(=O)NCc1ccc(CCN2CCN(c3ccccc3)CC2)cc1
Reply | 2784

Ask | Now the same for CC(=O)NCc1ccc(CCCCN2CCN(c3ccccc3)CC2)cc1
Reply | 1337

Ask | Now the same for NC(=O)NCc1ccc(CCCCN2CCN(c3ccccc3)CC2)cc1
Reply | 253

Ask | Now the same for CC(=O)NCCc1ccc(CCCCN2CCN(c3ccccc3)CC2)cc1
Reply | 292

Ask | Now the same for CC(=O)NCCCc1ccc(CCCCN2CCN(c3ccccc3)CC2)cc1
Reply | 146

Ask | Now the same for COc1ccc(N2CCN(Cc3ccc(CNC(C)=O)cc3)CC2)cc1
Reply | 449

---

measuredTarget: D(2) dopamine receptor (Bos taurus, UniProt P20288)
methodSummary: Binding affinity towards Dopamine receptor D2
readoutKind: Ki

Example compounds with recorded Ki:
# chemicalStructure, Ki
records = [
    ("COc1ccc(N2CCN(Cc3ccc(CNC(C)=O)cc3)CC2)cc1", "> 1 µM"),
    ("CC(=O)NCc1ccc(CN2CCN(c3ccc(F)cc3F)CC2)cc1", "> 1 µM"),
]

Moving on to the next compound.
Ask | May I ask what Ki has been recorded for CC(=O)NCc1ccc(CN2CCN(c3ccc(Cl)cc3)CC2)cc1 ?
Reply | > 1 µM

The reported measurements were obtained from ChEMBL document CHEMBL1133349.
